Values compiled from PubChem BioAssay (EPA / NIEHS).

- Tested On: Nuclear receptor subfamily 1 group I member 2 (Homo sapiens)
- Protocol Summary: ATG_PXR_TRANS: Attagene TRANS-FACTORIAL HepG2 Assay for human Pregnane X Receptor (PXR) (AID 2283008)
Records with an inconclusive call do not appear. Active and inactive are the calls of the source. How the source made its calls: active means hit-call score of the fitted dose curve at least 0.9, where 1 is the maximum; inconclusive means response in the unintended direction; inactive means score below 0.9.
Entry note: the call must match one of T = active, F = inactive

Check out these entries, answers already filled in.
# Compound, Tested On, Class Label
data = [
    ("CC(C)N(c1ccccc1)C(C)C", "Nuclear receptor subfamily 1 group I member 2 (Homo sapiens)", "F"),
    ("CCO[Si](CCC#N)(OCC)OCC", "Nuclear receptor subfamily 1 group I member 2 (Homo sapiens)", "F"),
    ("CC(CO)(CO)[N+](=O)[O-]", "Nuclear receptor subfamily 1 group I member 2 (Homo sapiens)", "F"),
    ("CC(C)(C)c1cccc(O)c1", "Nuclear receptor subfamily 1 group I member 2 (Homo sapiens)", "T"),
    ("Cc1ccccc1S", "Nuclear receptor subfamily 1 group I member 2 (Homo sapiens)", "F"),
    ("CC1(C)CC(N)CC(C)(CN)C1 (centres undefined)", "Nuclear receptor subfamily 1 group I member 2 (Homo sapiens)", "F"),
    ("CC(=O)CC(C)(C)C1CCCCC1", "Nuclear receptor subfamily 1 group I member 2 (Homo sapiens)", "F"),
    ("CCCCC1CCCCC(=O)O1 (centres undefined)", "Nuclear receptor subfamily 1 group I member 2 (Homo sapiens)", "F"),
    ("COc1ccc(C(C)=O)cc1", "Nuclear receptor subfamily 1 group I member 2 (Homo sapiens)", "F"),
    ("CC(C)CCOC(=O)CC(C)C", "Nuclear receptor subfamily 1 group I member 2 (Homo sapiens)", "F"),
]

Moving on to the next compound.
Query string: Query: recorded result category for `C=CCOC(=O)/C=C\C(=O)OCC=C` in this test
Result string: F

----------
- Tested On: Estrogen receptor (Homo sapiens)
- Protocol Summary: OT_ERa_GFPERaERE_0480: Odyssey Thera (OT) 8-hour HeLa Transcription Induction Assay for Estrogen Receptor (AID 2283381)
Calls of active or inactive are those of the source. Rule for the calls: active = hit-call score of the fitted dose curve at least 0.9, where 1 is the maximum; inactive = score below 0.9.
Entry note: the call must match one of 1 = active, 0 = inactive

Check out these entries, answers already filled in.
# Compound, Tested On, Class Label
records = [
    ("OC[C@H]1O[C@@H](O[C@H]2[C@H](O)[C@@H](O)[C@H](O)O[C@@H]2CO)[C@H](O)[C@@H](O)[C@H]1O", "Estrogen receptor (Homo sapiens)", 0),
    ("CC(=O)N(C)C", "Estrogen receptor (Homo sapiens)", 0),
    ("[O-]/[N+](=N\\O)c1ccccc1", "Estrogen receptor (Homo sapiens)", 0),
    ("CCCc1ccc(O)cc1", "Estrogen receptor (Homo sapiens)", 0),
    ("CCCCN(CCCC)CCCCCCN(CCCC)CCCC", "Estrogen receptor (Homo sapiens)", 0),
]

Query string: Query: recorded result category for `CCCCCCCCOC(C)=O` in this test
Result string: 0

Query string: Please answer likewise for `CN(C)C`
Result string: 0

Query string: Please answer likewise for CC1COC(=O)O1 (stereo not drawn)
Result string: 0

Query string: Please answer likewise for `CCNC(=S)NCC`
Result string: 0

Query string: Please answer likewise for CC12CCC(C1)C(C)(C)C2O (stereo not drawn)
Result string: 0

Query string: Please answer likewise for `OC[C@@H](O)[C@H](O)[C@@H](O)[C@@H](O)CO`
Result string: 0

Query string: Please answer likewise for `CCCCCCCCCCCCN1CCOCC1`
Result string: 0

Query string: Please answer likewise for `O=C(OCc1ccccc1)c1ccccc1O`
Result string: 0

Query string: Please answer likewise for COC(=O)C(C)Oc1ccc(Oc2ncc(C(F)(F)F)cc2Cl)cc1 (stereo not drawn)
Result string: 0
